# System: Zika virus NS2B-NS3 protease (unlinked complex)
# ASSAY_INFO: Primary screen GU Rhodamine qHTS for Zika virus inhibitors: Unlinked NS2B-NS3 protease assay (AID 1347159); further: nearly all actives have a fitted effect of over 60% in size
# CONDITION_NOTES: Recombinant ZIKV NS2B-NS3 protease, Rhodamine110 substrate fluorescence; series mostly up to 107 µM
Records with an inconclusive call do not appear. Calls of active or inactive are those of the source. The call rests on the fitted dose curve; in most records, active means well fitted inhibition curve with a large enough effect; inconclusive means small, poorly fitted or top-dose-only effect; inactive means no such curve, though single readings can be large or run the other way.
Select the matching outcome among t (active), f (inactive)

For orientation, consider the following solved cases.
MOLECULE	LABEL_CLASS
CNC(=O)CN1CCC(Oc2cc3c(Nc4cccc(Cl)c4F)ncnc3cc2OC)CC1	f
O=C(c1ccc(Nc2nccc(-c3cc4ccccc4s3)n2)cc1)N1CCC(N2CCCC2)CC1	f
NC(=O)c1c(OCc2c(F)cc(Br)cc2F)nsc1NC(=O)NCCCCN1CCCC1	f
CC(C)c1cnn2c(NCc3ccccc3)cc(N[C@@H](CO)[C@H](O)CO)nc12	f
COc1ccc2c(c1)CC[C@@H](CN(C)CC(=O)O)[C@H]2c1ccccc1	f

Prompt line: Record lookup: outcome of this test for CCn1nnc2c(N3CCOCC3)nc(-c3ccc(NC(=O)Nc4ccc(C(=O)N5CCN(C)CC5)cc4)cc3)nc21 ?
Response line: f

Prompt line: Also, Cn1c(=O)n(-c2ccc(C(C)(C)C#N)cc2)c2c3cc(-c4cnc5ccccc5c4)ccc3ncc21 please.
Response line: f

Prompt line: Now consider C[C@@H]1COC(Nc2ccc3ncnc(Nc4ccc(OCc5nccs5)c(Cl)c4)c3c2)=N1 and answer again.
Response line: f

Prompt line: Then this molecule: COc1cc2c(Oc3ccc4[nH]c(C)cc4c3F)ncnc2cc1OCCCN1CCCC1
Response line: f

Prompt line: Try CC(O)C1C(=O)N2C(C(=O)O)=C(SC3CNC(C(=O)N(C)C)C3)C(C)C12 (stereo unspecified) next.
Response line: f

Prompt line: What about this molecule? C[C@@H](Oc1cc(-c2cnn(C3CCNCC3)c2)cnc1N)c1c(Cl)ccc(F)c1Cl
Response line: f

Prompt line: Now the same for C[C@]1(CO)CN(c2cc(C(=O)Nc3ccc4c(c3)-c3c(c(C(N)=O)nn3-c3ccc(F)cc3)CC4)c(Cl)cn2)C[C@@]1(C)CO
Response line: f

Prompt line: Moving on to the next molecule: CC(=O)Nc1nc(C)c(-c2ccc(Cl)c(S(=O)(=O)NCCO)c2)s1
Response line: f

Prompt line: Another molecule to check: CNC(=O)c1ccc(N2C(=S)N(c3cnc(C#N)c(C(F)(F)F)c3)C(=O)C23CCC3)cc1F
Response line: f

Prompt line: Repeat with COc1cc(-c2nn(C3CCC(N4CCN(C(C)=O)CC4)CC3)c3ncnc(N)c23)ccc1NC(=O)c1cc2ccccc2n1C (stereo unspecified)
Response line: f
